Assay method text: Nuclear factor erythroid 2-related factor 2/antioxidant responsive element (Nrf2/ARE) small molecule agonists: qHTS cell viability counter screen in human keratinocytes (AID 1919968); further: nearly all actives have a fitted effect of over 55% in size; further: potency means the concentration at half of the fitted maximal effect
Assay context: KeratinoSens HaCaT ARE cells viability, CellTiter-Fluor, 24 h; series mostly up to 92.4 µM
Results filed as inconclusive are left out. The source made the active and inactive calls. The call rests on the fitted dose curve; in most records, active means well fitted cell-killing curve with a large enough effect in the repeat runs; inconclusive means weak or mixed curves, or effect the other way; inactive means flat fitted curve, though single readings scatter.
Measurement kind: Potency

// below: answered molecules
smiles_record=CCOc1cc(OP(=S)(OC)OC)nc(CC)n1 recorded_value=inactive
smiles_record=Cc1nc2ccccc2c(=O)n1-c1ccccc1Cl recorded_value=inactive
smiles_record=CC(=O)C(Cl)(Cl)Cl recorded_value="16.6 µM (active)"
smiles_record=C/C=C/C=O recorded_value=inactive
smiles_record=C[C@]12CC[C@H]3[C@@H](CCC4=CC(=O)CC[C@@H]43)[C@@H]1CC[C@@H]2OC(=O)CCC1CCCCC1 recorded_value=inactive

Query :: Item under review: `Oc1cccc(Cl)c1` . Reported Potency?
Result :: inactive

Query :: Item under review: `O=C1c2ccccc2C(=O)C1C(=O)C(c1ccccc1)c1ccccc1` . Reported Potency?
Result :: inactive

----------
Assay method text: p53 small molecule agonists, cell-based qHTS assay: qHTS cell viability counter screen (AID 1963581); further: nearly all actives have a fitted effect of over 45% in size
Assay context: p53RE-bla HCT-116 viability, ATP luminescence, 16 h; series mostly up to 66 µM
Inconclusive results are not listed. The source made the active and inactive calls. Calls follow the shape of the full dose curve.
Measurement kind: outcome

// below: answered molecules
molecule=N#Cc1c(-c2ccc(Cl)cc2)[nH]c(C(F)(F)F)c1Br recorded_value=inactive
molecule=COc1cc(OC)nc(NC(=O)NS(=O)(=O)c2ncccc2OCC(F)(F)F)n1 recorded_value=inactive
molecule=CC(=O)O[C@H]1CC[C@@]2(C)C(=CC[C@@H]3[C@@H]2CC[C@]2(C)C(=O)CC[C@@H]32)C1 recorded_value=inactive
molecule=CCOP(=S)(OCC)SCCS(=O)(=O)CC recorded_value=inactive
molecule=CC(C)N(C(=O)COc1nnc(C(F)(F)F)s1)c1ccc(F)cc1 recorded_value=inactive

Query :: Item under review: CC[N+]1(C)CCCC(OC(=O)C(O)(c2ccccc2)c2ccccc2)C1 (centres undefined) . Reported outcome?
Result :: inactive

Query :: Item under review: `CCCCCCCC(=O)Cl` . Reported outcome?
Result :: inactive

Query :: Item under review: `C=CC(=O)OCCN(C)C` . Reported outcome?
Result :: inactive

Query :: Item under review: `C=COC(C)=O` . Reported outcome?
Result :: inactive

Query :: Item under review: `CCOC(=O)COc1ccc(Cl)cc1Cl` . Reported outcome?
Result :: inactive

Query :: Item under review: `Clc1ccccc1` . Reported outcome?
Result :: inactive

Query :: Item under review: `CNC(=O)O/N=C(/CSC)C(C)(C)C` . Reported outcome?
Result :: inactive

Query :: Item under review: `CCCCCCBr` . Reported outcome?
Result :: inactive

Query :: Item under review: `CON(C)C(=O)Nc1ccc(Br)cc1` . Reported outcome?
Result :: inactive

----------
Experimental system: 5-hydroxytryptamine receptor 2A (Homo sapiens)
Assay method text: 5-hydroxytryptamine receptor 2A (HTR2A) small molecule agonists, cell-based qHTS assay (AID 1963587); further: nearly all actives have a fitted effect of over 30% in size
Assay context: HTR2A-CHO cells, calcium flux fluorescence, agonist mode; series mostly up to 76.8 µM
Inconclusive results are not listed. The source made the active and inactive calls. The call rests on the fitted dose curve.
Measurement kind: outcome

// below: answered compounds
compound=O=C(CCl)Nc1ccccc1 recorded_value=inactive
compound="CC1CN1P(=O)(N1CC1C)N1CC1C (configuration not stated)" recorded_value=inactive
compound=CCOP(=S)(OCC)Oc1ccc(Cl)cc1Cl recorded_value=inactive
compound="CN/C(=N\\[N+](=O)[O-])NCC1CCOC1 (configuration not stated)" recorded_value=inactive
compound=CSc1nc(N=[N+]=[N-])nc(NC(C)C)n1 recorded_value=inactive

Query :: Item under review: Fc1ccc(C2(Cn3cncn3)OC2c2ccccc2Cl)cc1 (configuration not stated) . Reported outcome?
Result :: inactive

Query :: Item under review: `Cc1ccccc1CO[C@@H]1C[C@@]2(C(C)C)CC[C@]1(C)O2` . Reported outcome?
Result :: inactive

Origin of values: PubChem BioAssay (Tox21)
